Tested on: RXF 393 renal
assayComment: NCI tumour cell line growth inhibition, 48 h
Reported TGI values are given for each entry in this list.
measurementName: TGI (µM)

compound	testedSystem	measurementName	resultUnits	boundOperator	observedResult
COC(=O)/C1=C/c2c([nH]c3ccccc23)/C(C(=O)OC)=C\c2c1[nH]c1ccccc21	RXF 393 renal	TGI	µM	=	33.3
O=c1cc(NCC(O)CN2CCOCC2)n(Cc2ccccc2)c(=O)n1Cc1ccccc1 (stereo not drawn)	RXF 393 renal	TGI	µM	=	92.5
O=c1[nH]c2[nH]c(-c3ccc(Br)cc3)cc2c2ccccc12	RXF 393 renal	TGI	µM	=	47.1
O=C1C(=Cc2cccs2)C(=O)N(CCc2ccccc2)S(=O)(=O)N1CCc1ccccc1	RXF 393 renal	TGI	µM	>	50
O=C1c2cccc(O)c2C(=O)c2cccc(O)c21	RXF 393 renal	TGI	µM	>	100
C=CC(=O)N1C[C@H](COc2nc(Nc3cnn(C)c3)nc3[nH]cc(Cl)c23)[C@@H](OC)C1	RXF 393 renal	TGI	µM	=	2.88
COc1ccc(Nc2nc3cc(C(F)(F)F)ccc3nc2C(=O)O)cc1	RXF 393 renal	TGI	µM	=	26.8
CCOC(=O)c1ccc(NC(=O)O/N=C(/Cl)CC)cc1	RXF 393 renal	TGI	µM	=	31.1
O=C(Nc1ccc2ncccc2c1)c1cc2c(cc1Cl)Sc1nccn1S2(=O)=O	RXF 393 renal	TGI	µM	=	33.6
O=C(O)CSc1ccc(N=C=S)cc1	RXF 393 renal	TGI	µM	>	100
O=C(CCc1ccc(O)c(O)c1)OCCc1ccccc1	RXF 393 renal	TGI	µM	>	100
CC(=O)c1cc(I)c(O)c2ncccc12	RXF 393 renal	TGI	µM	=	8.76
CC(C)(CN1CCCCC1)C(=O)/C=C/c1ccc(Cl)c(Cl)c1	RXF 393 renal	TGI	µM	=	2.42
CCOC(=O)/C(=C\NCc1ccc2c(c1)OCO2)c1nc2ccccc2[nH]1	RXF 393 renal	TGI	µM	>	100
CCOC(=O)/C=C1/SC(N2CCCCC2)C(=O)N1CC (stereo not drawn)	RXF 393 renal	TGI	µM	>	100
O=c1ccc2nc(C(F)(F)F)nn(-c3ccccc3)c-2c1	RXF 393 renal	TGI	µM	=	2.8
CCC(=O)OC1CCC2C3CCC(=O)OC3C(C)(CCC(=O)O)CC12C (stereo not drawn)	RXF 393 renal	TGI	µM	>	100
CC(CC(=O)O)(CC(=O)O)c1ccccc1	RXF 393 renal	TGI	µM	>	100
CSC(=NC#N)S/C=C/C(=O)c1ccc(Cl)cc1	RXF 393 renal	TGI	µM	=	42.4
O=Cc1cn(Cc2ccc(Cl)cc2)c2ccccc12	RXF 393 renal	TGI	µM	=	51.8
Nc1ccc(C(=O)NN2C(=O)[C@H](Cl)C2c2ccc(Cl)cc2)cc1 (stereo partly drawn)	RXF 393 renal	TGI	µM	>	100
Cc1ccccc1N(CC(=O)O)S(=O)(=O)c1ccccc1	RXF 393 renal	TGI	µM	>	100
CC1(C)NC(C)(C)/C(=N\O)C(=NO)/C1=N/O	RXF 393 renal	TGI	µM	>	100

---

// values below are reported TGI
System: CCRF-CEM leukemia
assayComment: NCI tumour cell line growth inhibition, 48 h
Where a SMILES comes first, the peptide text is derived from it. [ ]: non-standard residue; d: D form. Ac5c = NC1(C(=O)O)CCCC1
measurementName: TGI

compound	testedSystem	observedResult
CC(C)=CC(=O)OC1C(CO)OC(Oc2cc(O)c3c(=O)cc(-c4ccc(O)c(O)c4)oc3c2)C(OC2OC(C)C(O)C(O)C2O)C1O (stereo not drawn)	CCRF-CEM leukemia	> 100 µM
S=C(Nc1ccccc1)Nc1ccccc1SC(/C=C/NNC1=NC(c2ccccc2)C(c2ccccc2)=NN1)c1ccccc1 (stereo not drawn)	CCRF-CEM leukemia	> 100 µM
CCCCCCCCCCC(O)CCCCCCC(=O)O (stereo not drawn)	CCRF-CEM leukemia	91.3 µM
O=C(/C=C/c1ccc(Br)cc1)c1ccc(NCc2nc3ccccc3[nH]2)cc1	CCRF-CEM leukemia	> 40.1 µM
C/C(=N\NC(=O)c1ccncc1)c1cccc(F)c1	CCRF-CEM leukemia	> 10 µM
CC1(O)CCC(C(C)(C)O)CC1 (stereo not drawn)	CCRF-CEM leukemia	> 100 µM
Cc1cc(Oc2ccccc2)ccc1Nc1ncnc2ccc(-c3cnc(Cl)c(NS(C)(=O)=O)c3)cc12	CCRF-CEM leukemia	15.6 µM
Cc1nc(N)nn1C1OCC(O)C(O)C1O (stereo not drawn)	CCRF-CEM leukemia	> 100 µM
Cc1cc(C(C)C)cc(O)c(=O)c1	CCRF-CEM leukemia	> 100 µM
O=C1CCC2(c3ccc(F)cc3)Nc3ncccc3N12 (stereo not drawn)	CCRF-CEM leukemia	> 100 µM
O=C(Nc1ccc([As]=[As]c2ccc(NC(=O)c3ccccc3)cc2)cc1)c1ccccc1 (stereo not drawn)	CCRF-CEM leukemia	0.428 µM
Nc1ccc(I)cn1	CCRF-CEM leukemia	> 100 µM
COc1ccc2nc3cccc([N+](=O)[O-])c3c(NCCNCCO)c2c1	CCRF-CEM leukemia	0.173 µM
COc1ccc(/C=c2/sc3n(c2=O)NC2(CCCCC2)NN=3)cc1	CCRF-CEM leukemia	> 100 µM
O=C(c1cccs1)N(C(=S)N1CCN(c2ccccc2)CC1)C1CCCCC1	CCRF-CEM leukemia	> 100 µM
COC1(OC)CC(CO)(CNc2nc(N)nc(Cl)c2C=O)C1	CCRF-CEM leukemia	> 100 µM
CC(=O)OC1Oc2ccccc2-c2oc(=O)c(-c3ccc(F)cc3)cc21 (stereo not drawn)	CCRF-CEM leukemia	55.2 µM
CCOC(=O)/C(SC#N)=C(/N)N1CCCC1	CCRF-CEM leukemia	> 100 µM
O=C(CCCCN1CCOCC1)Nc1ccc(Cn2nnc3c2C(=O)c2nnn(Cc4ccc(NC(=O)CCCCN5CCOCC5)cc4)c2C3=O)cc1	CCRF-CEM leukemia	2.7 µM
COc1cc(/C=C2\N=C(c3ccccc3)N(c3nc4ccc(Sc5ccccc5)cc4[nH]3)C2=O)ccc1O	CCRF-CEM leukemia	55.3 µM
OCc1ccc(N(Cc2ccc(F)cc2)CC2CC2)cc1Cl	CCRF-CEM leukemia	39.9 µM
Cc1cc2c3ccccc3nc2c2cc[nH]c(C)c12	CCRF-CEM leukemia	4.77 µM
CC1(C)CN=C(Nc2ccc(F)cc2)S1	CCRF-CEM leukemia	> 100 µM
CCOC(=O)c1nnn(-c2no[n+]([O-])c2-c2ccc(OC)cc2)c1COc1cccc2cccnc12	CCRF-CEM leukemia	> 100 µM
O=C(CCc1ccc(O)c(O)c1)NCCc1cc(O)cc(OCc2ccccc2)c1	CCRF-CEM leukemia	75.9 µM
O=C(N/N=C/c1c(Cl)cccc1Cl)c1cccnc1Nc1cccc(C(F)(F)F)c1	CCRF-CEM leukemia	10.8 µM
COC(=O)C1(NC(=O)C(C)NC(=O)C(CCCCN)NC(=O)C(CC(C)C)NC(C)=O)CCCC1 (stereo not drawn) (Ac-LKA[Ac5c]-OMe; configuration not given here)	CCRF-CEM leukemia	> 100 µM
C[Si](C)(c1ccccc1)C1CC(=O)CC(=O)C1	CCRF-CEM leukemia	> 100 µM
CC(C)(CN1CCCCC1)C(=O)/C=C/c1ccc(Cl)c(Cl)c1	CCRF-CEM leukemia	3.27 µM
COc1ccc(OC)c2c1C(=O)C(=O)C(Cl)=C2O	CCRF-CEM leukemia	> 100 µM
Cc1nc2c(o1)C(=O)c1ccccc1C2=Nc1ccccc1	CCRF-CEM leukemia	> 65.8 µM
O=C(N/N=C(\CN1CCN(c2cc3[nH]cc(C(=O)O)c(=O)c3cc2F)CC1)c1ccc(Cl)cc1)c1ccncc1	CCRF-CEM leukemia	> 100 µM
CCCC(=O)c1c(NOC2OCC(OC(C)=O)C(OC(C)=O)C2OC(C)=O)nc(OC)n(C)c1=O (stereo not drawn)	CCRF-CEM leukemia	19.1 µM
